z-score values for the compounds below.
assay: A549 lung cancer cell viability effects, profiling panel, resazurin fluorescence, 24 h, PK04 Diversity Set (AID 1171); conditions: higher = more signal, called active from +8 up or from −8 down; note: test concentration not given here
Response field accepts a number only; no unit should be typed.

Take a look at these entries with their results.
Lookup: What measured z-score goes with C[C@@H]1NC(=O)[C@H](Cc2ccccc2)NC(=O)[C@@]23C(=O)N[C@@H](Cc4ccccc4)C2[C@H](C)[C@@]2(C)O[C@H]2C3/C=C/C/C=C\CNC1=O (some centres not stated) ?
Found: -0.207

Lookup: Reported z-score, compound `C=C(COC)/C(=C/C[C@@H](OC(=O)c1ccncc1)c1ccc(OCCO)cc1)c1cc(C(=O)OC)ccc1OC` : ____
Found: 1.6

Lookup: # query: z-score of entry C=CC(=O)O[C@@H](Cc1ccccc1)[C@H]1C2C=CCCC=C2CN1Cc1cccc(Cl)c1 (some centres not stated)
Found: 1.11

Lookup: # z-score lookup, item `CCCC=C(CCC)[C@@H](NS(=O)(=O)c1ccc(-c2ccccc2)cc1)c1ccc(C(=O)OC)cc1`
Found: 1.35

Lookup: For the compound shown here, `CCC#CCN(Cc1ccccc1Br)[C@H](/C=C/c1ccccc1)[C@@H](O)Cc1ccccc1` , give the reported z-score.
Found: 1.36

Lookup: Value lookup for z-score; key = `Cc1ccc(S[C@]2(C(=O)NCCCN(C)C)CC(=O)N(C3CCCCC3)[C@@H]2c2ccc(CO)cc2I)cc1`
Found: -0.835

***
Lookup: Quick check: z-score of `C=CCN1C(=O)[C@]2(O[C@H](CCn3cc(CCO)nn3)[C@@H]([Si](C)(C)c3ccc(OC)cc3)[C@@H]2C)c2cc(NC(=O)c3ccc(OC)cc3)ccc21` ?
Found: -2.65

###

molecular target: Dihydroorotate dehydrogenase (quinone), mitochondrial (Plasmodium falciparum (isolate 3D7)) (UniProt Q08210); assay: PfDHODH enzyme inhibitors, primary screen, biochemical, C-terminal His tag, absorbance 600 nm (AID 1175); conditions: DCIP absorbance 600 nm, higher = more signal, called active from +8 up or from −8 down;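 note: recombinant parasite enzyme with a five histidine tag at its C terminus; test concentration not given here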
Sequence (Q08210 whole entry, looked up): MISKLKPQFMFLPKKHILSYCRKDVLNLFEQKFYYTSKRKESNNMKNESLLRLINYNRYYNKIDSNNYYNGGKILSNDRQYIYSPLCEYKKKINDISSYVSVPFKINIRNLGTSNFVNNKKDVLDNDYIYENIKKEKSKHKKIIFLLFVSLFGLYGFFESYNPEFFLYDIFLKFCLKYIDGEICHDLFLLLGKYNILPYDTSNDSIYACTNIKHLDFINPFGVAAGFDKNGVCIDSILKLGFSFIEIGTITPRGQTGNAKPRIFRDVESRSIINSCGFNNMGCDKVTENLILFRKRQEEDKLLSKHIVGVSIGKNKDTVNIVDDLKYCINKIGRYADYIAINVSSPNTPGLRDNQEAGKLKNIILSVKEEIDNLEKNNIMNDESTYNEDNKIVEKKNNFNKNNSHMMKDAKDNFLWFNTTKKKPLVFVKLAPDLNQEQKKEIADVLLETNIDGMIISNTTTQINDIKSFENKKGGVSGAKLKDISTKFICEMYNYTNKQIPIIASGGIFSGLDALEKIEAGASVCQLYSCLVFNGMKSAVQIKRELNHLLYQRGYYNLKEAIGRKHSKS
Kind request: treat -0.4 as inclusive, so composite z-score at -0.4 or higher is fulfilled, anything lower is not fulfilled.

The following compounds have reported results that may help.
Lookup: Does the compound O=C1C2C=CC(C(O)Cc3ccccc3)N(Nc3ccc([N+](=O)[O-])cc3)C2C(=O)N1c1ccccc1 (centres undefined) have recorded composite z-score that is -0.4 or more?
Found: not fulfilled

Lookup: Determine whether measured composite z-score meets or exceeds -0.4 for CCC1=C2CN(Cc3ccccc3Br)[C@@H]([C@@H](O)Cc3ccccc3)C2C=CCC1 (some centres undefined)
Found: not fulfilled

Lookup: Please check the record `CCOC(=O)C[C@H]1[C@H](OC(=O)Cc2ccc3c(c2)OCO3)[C@@H](NC(=O)c2ccc3ccccc3c2)c2cc(OCCCO)ccc2N1C(=O)Cc1ccc(OC)cc1` and state if its composite z-score is at or above -0.4.
Found: not fulfilled

Lookup: Entry `C=CCc1cccc([C@@H]2[C@@H](C)CC[C@H]3C(=O)N4[C@H](c5cccc(CC=C)c5)[C@@H](C)CC[C@H]4C(=O)N23)c1` : is its composite z-score no less than -0.4?
Found: not fulfilled

Lookup: API: above_or_equal(metric=composite z-score, cutoff=-0.4) for item `COc1ccc(CCNC(=O)[C@@]2(c3ccc([N+](=O)[O-])cc3)CC(=O)N(C(C)C)[C@@H]2c2ccc(CO)cc2)cc1`
Found: not fulfilled

---
Lookup: Hi, just wondering whether `CCOC(=O)C1=C[C@@H](c2ccccc2)N(S(=O)(=O)c2ccc(C)cc2)[C@H]1c1ccc(F)cc1` shows composite z-score of -0.4 or higher.
Found: fulfilled

Lookup: Decide: is the reported value of composite z-score for C[C@H]1C2[C@H](Cc3ccccc3)NC(=O)[C@]23C(=O)N[C@H](Cc2ccccc2)C(=O)N[C@@H](Cc2ccccc2)C(=O)NC/C=C\C/C=C/C3[C@@H]2O[C@]12C (some centres undefined) equal to or greater than -0.4?
Found: not fulfilled

Lookup: Does the compound `NC(=O)[C@H]1[C@@H]2C(=O)O[C@@H](c3ccccc3)[C@@H](c3ccccc3)N2[C@@H](c2ccc(O)cc2)[C@]12C(=O)Nc1ccc(C#CCCO)cc12` have recorded composite z-score that is -0.4 or more?
Found: fulfilled
